Each entry below carries its recorded IC50.
System: COLO 205 cells
Test: MTS cytotoxicity test procedure with COLO 205 cells
Type: cell-based
Conditions: Homo sapiens, 72 h, MTS assay, three days of culture
Return type: number; implicit unit nM.

Example entries begin here.
Fc1cc(F)c(-c2c(Cl)nc3nccn3c2C2CCCCCC2)c(F)c1; 207
CN(C)CCCOc1cc(F)c(-c2c(Cl)nc3nccn3c2NCC(F)(F)F)c(F)c1; 88
CN(C)CCCOc1cc(F)c(-c2c(Cl)nc3nccn3c2C2CCCCCC2)c(F)c1; 45
Fc1cc(F)c(-c2c(Cl)nc3nccn3c2N2CCCCC2)c(F)c1; 396
Fc1cc(F)c(-c2c(Cl)nc3nccn3c2N2CCCCCC2)c(F)c1; 259

Now for the compound whose IC50 we want.
(Q) If you can, please state the reported IC50 value of Fc1cc(F)c(-c2c(Cl)nc3nccn3c2NCC(F)(F)F)c(F)c1 .
(A) 742

The reported numbers originate from patent US7285555B2.
